Sourced from patent US20220177587A1

Target: human PD-L1 (human) (UniProt Q9NZQ7)
Sequence (Q9NZQ7 19-290): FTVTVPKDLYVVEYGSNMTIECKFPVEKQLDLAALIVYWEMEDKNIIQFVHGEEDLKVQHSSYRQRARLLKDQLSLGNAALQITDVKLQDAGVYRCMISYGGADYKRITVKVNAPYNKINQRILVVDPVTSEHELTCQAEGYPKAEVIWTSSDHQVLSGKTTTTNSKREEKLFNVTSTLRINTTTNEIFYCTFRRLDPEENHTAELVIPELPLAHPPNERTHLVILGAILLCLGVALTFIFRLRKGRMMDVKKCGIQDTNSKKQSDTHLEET
Test: flow cytometry, CHO cells stably expressing PD-L1
Observation Type: MFI at 33.3 nM (MFI)

Sample answers from the record:
binder="variant CD80 IgV-Fc M47L/V68M/A71G/D90G (Fc fusion) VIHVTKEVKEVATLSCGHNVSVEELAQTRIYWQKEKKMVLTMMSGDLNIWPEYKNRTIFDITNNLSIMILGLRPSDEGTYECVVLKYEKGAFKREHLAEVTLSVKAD" test_value=31100
binder="variant CD80 IgV-Fc A26E/E35D/V68M/D90G (Fc fusion) VIHVTKEVKEVATLSCGHNVSVEELEQTRIYWQKDKKMVLTMMSGDMNIWPEYKNRTIFDITNNLSIMILALRPSDEGTYECVVLKYEKGAFKREHLAEVTLSVKAD" test_value=6990
binder="variant CD80 IgV-Fc (inert) H18F/A26N/E35D/M47V/V68M/A71G/D90K (Fc fusion) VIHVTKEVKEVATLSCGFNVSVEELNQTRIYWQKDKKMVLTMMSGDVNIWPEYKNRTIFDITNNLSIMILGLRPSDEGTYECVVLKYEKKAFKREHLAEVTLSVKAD" test_value=22400
binder="variant CD80 IgV-Fc H18Y/A26E/V68M/A71G (Fc fusion) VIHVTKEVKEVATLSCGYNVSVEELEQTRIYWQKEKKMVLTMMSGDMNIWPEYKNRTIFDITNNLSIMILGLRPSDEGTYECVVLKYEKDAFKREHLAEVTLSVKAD" test_value=6870
binder="variant CD80 IgV-Fc (inert) H18I/A26P/E35D/M47V/V68M/A71G (Fc fusion) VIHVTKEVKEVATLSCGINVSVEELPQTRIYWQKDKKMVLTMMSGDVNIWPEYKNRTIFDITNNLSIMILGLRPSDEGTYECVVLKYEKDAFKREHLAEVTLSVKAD" test_value=64900

1: CD80 E35D/D46V/M47L/V68M/L85Q/E88D IgV-Fc, (EAAAK)3 linker (Fc fusion) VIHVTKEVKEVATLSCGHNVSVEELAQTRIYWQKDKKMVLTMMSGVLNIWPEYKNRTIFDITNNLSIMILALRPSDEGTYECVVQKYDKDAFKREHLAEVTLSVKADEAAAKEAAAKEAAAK
2: CD80 IgV-Fc H18Y/V22A/E35D/T41S/M47V/T62N/A71G/A91G (Fc fusion) VIHVTKEVKEVATLSCGYNVSAEELAQTRIYWQKDKKMVLSMMSGDVNIWPEYKNRTIFDINNNLSIVILGLRPSDEGTYECVVLKYEKDGFKREHLAEVTLSVKAD
Asked: When 1 and 2 are compared, which has the higher number for MFI at 33.3 nM? Let me know the label of the one you choose.
Given back: 1
(1: 25500 MFI, 2: 8460 MFI)

I: CD80 E35D/M47V/N48K/V68M/K89N IgV-Fc, EAAAK linker (Fc fusion) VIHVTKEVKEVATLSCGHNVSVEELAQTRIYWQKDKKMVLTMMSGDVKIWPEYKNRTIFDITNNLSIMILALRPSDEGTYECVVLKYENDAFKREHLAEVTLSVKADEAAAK
II: CD80 IgV-Fc E35D/D46E/M47L/V68M/L85Q/F92L (Fc fusion) VIHVTKEVKEVATLSCGHNVSVEELAQTRIYWQKDKKMVLTMMSGELNIWPEYKNRTIFDITNNLSIMILALRPSDEGTYECVVQKYEKDALKREHLAEVTLSVKAD
III: variant CD80 IgV-Fc (inert) H18C/A26P/E35D/M47L/V68M/A71G (Fc fusion) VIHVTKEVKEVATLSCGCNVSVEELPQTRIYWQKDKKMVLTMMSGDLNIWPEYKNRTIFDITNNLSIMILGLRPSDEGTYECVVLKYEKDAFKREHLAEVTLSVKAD
IV: variant CD80 IgV-Fc (inert) H18V/A26Q/E35D/M47V/V68L/A71G/D90G (Fc fusion) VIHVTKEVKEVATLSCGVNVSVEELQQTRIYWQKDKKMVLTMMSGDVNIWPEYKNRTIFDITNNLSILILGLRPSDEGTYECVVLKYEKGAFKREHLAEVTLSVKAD
Asked: Order each entry by recorded MFI at 33.3 nM, climbing from the minimum. Form entry: labels listed in requested order.
Given back: II, I, IV, III

a: CD80 E35D/D46V/M47L/V68M/L85Q/E88D IgV-Fc, EAAAK linker (Fc fusion) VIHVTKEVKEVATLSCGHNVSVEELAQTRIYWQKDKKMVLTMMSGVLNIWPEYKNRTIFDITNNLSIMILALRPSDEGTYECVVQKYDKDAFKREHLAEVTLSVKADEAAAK
b: variant CD80 IgV-Fc H18Y/A26E/E35D/M47L (Fc fusion) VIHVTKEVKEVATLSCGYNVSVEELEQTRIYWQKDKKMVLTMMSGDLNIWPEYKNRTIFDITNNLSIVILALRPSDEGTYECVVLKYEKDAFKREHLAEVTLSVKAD
c: variant CD80 IgV-Fc H18Y/A26E/M47L/A71G (Fc fusion) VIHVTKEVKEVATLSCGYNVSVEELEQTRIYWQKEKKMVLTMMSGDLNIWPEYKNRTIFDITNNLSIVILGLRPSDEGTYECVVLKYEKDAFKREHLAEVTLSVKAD
Asked: Ordering criterion: MFI at 33.3 nM; begin with the maximum. Form entry: labels listed in requested order.
Given back: a, c, b

a: variant CD80 IgV-Fc H18Y/M47L/V68M/D90G (Fc fusion) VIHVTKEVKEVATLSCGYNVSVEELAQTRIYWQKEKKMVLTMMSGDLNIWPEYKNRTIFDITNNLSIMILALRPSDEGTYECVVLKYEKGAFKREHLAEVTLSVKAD
b: variant CD80 IgV-Fc (inert) H18F/A26P/E35D/M47I/V68M/A71G/D90G (Fc fusion) VIHVTKEVKEVATLSCGFNVSVEELPQTRIYWQKDKKMVLTMMSGDINIWPEYKNRTIFDITNNLSIMILGLRPSDEGTYECVVLKYEKGAFKREHLAEVTLSVKAD
Asked: When a and b are compared, which has the higher number for MFI at 33.3 nM? Let me know the label of the one you choose.
Given back: b
(b: 32300 MFI, a: 21800 MFI)
